target.of.assay: Tyrosine-protein kinase TXK (Homo sapiens, UniProt P42681)
Sequence (P42681 whole entry): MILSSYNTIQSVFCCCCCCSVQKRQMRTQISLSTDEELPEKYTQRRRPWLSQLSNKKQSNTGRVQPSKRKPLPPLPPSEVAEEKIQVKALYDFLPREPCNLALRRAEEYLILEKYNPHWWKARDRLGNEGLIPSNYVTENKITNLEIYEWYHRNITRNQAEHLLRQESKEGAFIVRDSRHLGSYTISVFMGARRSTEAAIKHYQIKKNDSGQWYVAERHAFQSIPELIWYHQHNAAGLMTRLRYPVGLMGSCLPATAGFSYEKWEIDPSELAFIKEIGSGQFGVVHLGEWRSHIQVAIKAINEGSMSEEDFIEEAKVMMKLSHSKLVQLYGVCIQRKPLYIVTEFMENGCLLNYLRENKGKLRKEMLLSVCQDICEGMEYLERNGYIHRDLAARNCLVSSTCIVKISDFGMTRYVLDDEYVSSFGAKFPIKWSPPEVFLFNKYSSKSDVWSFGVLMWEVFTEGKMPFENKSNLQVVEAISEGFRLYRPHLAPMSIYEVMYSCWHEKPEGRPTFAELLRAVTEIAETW
assay.remarks: Inhibition of recombinant human N-terminal His6-tagged TXK (256 to end residues) expressed in baculovirus Sf21 insect cells preincubated for 5 mins followed by substrate addition after 30 to 60 mins in presence of ATP by fluorescence assay
attribute.measured: IC50 (nM)
The figure you give is taken to be in nM; do not add the unit.

Given the entry C=CS(=O)(=O)N1CCC[C@@H]1Cn1cc(-c2ccc3c(c2)OCO3)c2c(N)ncnc21 , report its measured IC50. 883

---

target.of.assay: Tyrosine-protein kinase JAK3 (Homo sapiens)
Sequence (P52333 whole entry): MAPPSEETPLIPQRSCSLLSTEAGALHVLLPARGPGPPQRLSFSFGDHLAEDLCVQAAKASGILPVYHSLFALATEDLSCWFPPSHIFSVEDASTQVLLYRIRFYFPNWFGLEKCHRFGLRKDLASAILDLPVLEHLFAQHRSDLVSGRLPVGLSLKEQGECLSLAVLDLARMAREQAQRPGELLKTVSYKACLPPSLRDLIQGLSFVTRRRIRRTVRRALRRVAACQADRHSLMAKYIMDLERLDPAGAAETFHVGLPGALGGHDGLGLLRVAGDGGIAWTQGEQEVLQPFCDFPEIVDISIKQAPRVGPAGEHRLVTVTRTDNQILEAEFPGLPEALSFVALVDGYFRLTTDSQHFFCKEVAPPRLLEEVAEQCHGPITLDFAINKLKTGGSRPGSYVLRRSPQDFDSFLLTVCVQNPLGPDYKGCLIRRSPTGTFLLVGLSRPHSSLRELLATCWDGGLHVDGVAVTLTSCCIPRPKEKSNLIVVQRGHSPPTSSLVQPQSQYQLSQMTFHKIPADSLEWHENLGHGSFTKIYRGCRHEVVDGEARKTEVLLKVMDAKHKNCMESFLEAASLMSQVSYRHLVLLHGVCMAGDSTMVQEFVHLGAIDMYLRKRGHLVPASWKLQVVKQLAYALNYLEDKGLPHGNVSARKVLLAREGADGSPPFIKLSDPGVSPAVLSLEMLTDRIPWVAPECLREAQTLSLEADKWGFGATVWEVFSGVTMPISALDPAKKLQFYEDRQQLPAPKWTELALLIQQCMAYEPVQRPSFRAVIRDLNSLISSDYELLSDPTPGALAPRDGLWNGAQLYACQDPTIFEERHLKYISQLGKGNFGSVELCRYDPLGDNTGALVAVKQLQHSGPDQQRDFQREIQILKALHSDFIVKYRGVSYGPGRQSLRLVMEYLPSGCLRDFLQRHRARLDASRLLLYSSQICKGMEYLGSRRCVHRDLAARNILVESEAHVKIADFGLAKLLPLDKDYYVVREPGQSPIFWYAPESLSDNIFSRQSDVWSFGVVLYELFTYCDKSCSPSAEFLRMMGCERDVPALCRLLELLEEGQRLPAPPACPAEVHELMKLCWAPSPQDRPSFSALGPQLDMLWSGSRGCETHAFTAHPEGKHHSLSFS
assay.remarks: Inhibition of recombinant human N-terminal His6-tagged JAK3 (781 to end residues) expressed in baculovirus Sf21 insect cells preincubated for 5 mins followed by substrate addition after 30 to 60 mins in presence of ATP by fluorescence assay
attribute.measured: IC50 (µM)
The figure you give is taken to be in µM; do not add the unit.

Given the entry C=CS(=O)(=O)N1CCC[C@@H]1Cn1cc(-c2ccc3c(c2)OCO3)c2c(N)ncnc21 , report its measured IC50. 8.16
